- Test system: 485176-168-R4-J1-PDC spheroids with HUVEC/MSC, viability;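 also: spheroids exposed to compounds for seven days before readout; percent viability relative to DMSO vehicle control wells as 100%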
- Experiment notes: Anticancer human tumor 485176-168-R4-J1-PDC patient-derived pancreatic adenocarcinoma cell line growth inhibition [GQUAD]
- Test parameters: second compound 0.316 µM; first compound 1 µM; hits give low values

Compound	viability, T/C
O=C(c1cc(Cc2n[nH]c(=O)c3ccccc23)ccc1F)N1CCN(C(=O)C2CC2)CC1 + Cc1cnc(CNC(=O)c2c(=O)c3ccc(N4CCCN(C)CC4)nc3n3c2sc2ccccc23)cn1	59.2%
Cc1cccc(N(C)C(=O)C2C(O)CCN2c2nc(C)cc(C(F)(F)F)c2C#N)c1 (configuration not stated) + Cc1cnc(CNC(=O)c2c(=O)c3ccc(N4CCCN(C)CC4)nc3n3c2sc2ccccc23)cn1	60.9%
CC(C)n1c(=O)n(C)c2cnc3cc(F)c(-c4ccc(OCCCN5CCCCC5)nc4)cc3c21 + CN(C)c1ccc(Nc2c3ccc(NC(=O)CCN4CCCC4)cc3nc3cc(NC(=O)CCN4CCCC4)ccc23)cc1	98.2%
COc1ccc([C@@H](O)c2cc(-c3ncnc4cc(N5CCOCC5)ccc34)c(F)cc2Cl)nn1 + CN(C)c1ccc(Nc2c3ccc(NC(=O)CCN4CCCC4)cc3nc3cc(NC(=O)CCN4CCCC4)ccc23)cc1	75.6%
CC1COCCN1c1cc(-c2ccnn2C)c2ccnc(-c3ccn[nH]3)c2n1 (configuration not stated) + Cc1[nH]c2ccc(F)cc2c1-c1nc2c3cccnc3c3ncccc3c2[nH]1	10.4%
C=CC(=O)N1CCN(c2nc(=O)n(-c3c(C)ccnc3C(C)C)c3nc(-c4c(O)cccc4F)c(F)cc23)C(C)C1 (configuration not stated) + Cc1[nH]c2ccc(F)cc2c1-c1nc2c3cccnc3c3ncccc3c2[nH]1	101%
COc1ncnc(C2CC2)c1-c1ncc2cnn(Cc3ccc(-c4nc(C(F)(F)F)cn4C(C)C)cc3)c2n1 + Cc1[nH]c2ccc(F)cc2c1-c1nc2c3cccnc3c3ncccc3c2[nH]1	92.4%
